Measured values drawn from patent US12606529B2 for this set.

Known CC50 at 24 h of a selection of molecules
test: in vitro; conditions: human, CC50 (μM), Table 2 amides; HepDES19 cells, MTT
measuredEndpoint: CC50 at 24 h (µM)

| molecule | u | reportedResult |
| --- | --- | --- |
| Cc1cc(O)c(=O)c(O)cc1C(=O)N1CCN(C(=O)c2ccc([N+](=O)[O-])c3nonc23)CC1 | µM | 19.3 |
| COC(=O)[C@@H](NC(=O)c1cc(O)c(=O)c(O)cc1C)C(C)C | µM | 18.3 |
| Cc1cc(O)c(=O)c(O)cc1C(=O)N1CCN(Cc2c(F)cccc2Cl)CC1 | µM | 10.4 |
| Cc1cc(O)c(=O)c(O)cc1C(=O)NC(CC(C)C)C(=O)OC(C)(C)C (stereo not shown) | µM | 9.1 |

====

experiment: in vitro; details: human, CC50, Table 3 sulfur compounds; HepDES19 cells, MTT
Lab note: anything with CC50 at 24 h below 40 µM is marked fulfilled; values at 40 µM or higher are marked not fulfilled.

| smilesText | category |
| --- | --- |
| CC(C)Sc1cccc(O)c(=O)c1O | fulfilled |
| O=c1c(O)cccc(Sc2ccccc2)c1O | fulfilled |
| O=c1c(O)cccc(S(=O)(=O)c2cccc3ccccc23)c1O | fulfilled |
| Cc1ccc(S(=O)(=O)c2cc(O)c(=O)c(O)cc2C)cc1 | fulfilled |
| CCCCCCS(=O)(=O)c1cccc(O)c(=O)c1O | fulfilled |
| CCCCCCSc1ccc(SCCCCCC)c(O)c(=O)c1O | fulfilled |
| O=c1c(O)cccc(SCCc2ccccc2)c1O | fulfilled |
| Cc1ccc(S(=O)(=O)c2cccc(O)c(=O)c2O)cc1 | fulfilled |
| O=c1c(O)c(S(=O)(=O)Cc2ccccc2)ccc(S(=O)(=O)Cc2ccccc2)c1O | not fulfilled |
| O=c1c(O)cccc(S(=O)(=O)c2ccccc2)c1O | fulfilled |
| CC(C)S(=O)(=O)c1ccc(S(=O)(=O)C(C)C)c(O)c(=O)c1O | not fulfilled |
| CC(C)S(=O)(=O)c1cccc(O)c(=O)c1O | fulfilled |
| CCCCCCS(=O)(=O)c1ccc(S(=O)(=O)CCCCCC)c(O)c(=O)c1O | not fulfilled |
| CCCCSc1ccc(SCCCC)c(O)c(=O)c1O | fulfilled |
| O=c1c(O)cccc(Sc2cccc3ccccc23)c1O | fulfilled |
| CCCCS(=O)(=O)c1cccc(O)c(=O)c1O | fulfilled |
| CSc1cccc(O)c(=O)c1O | not fulfilled |
| CCCCSc1cccc(O)c(=O)c1O | fulfilled |
| O=c1c(O)cccc(S(=O)(=O)Cc2ccccc2)c1O | fulfilled |
| Cc1cc(O)c(=O)c(O)cc1S(=O)(=O)c1ccc(-c2ccccc2)cc1 | not fulfilled |
| O=c1c(O)cccc(S)c1O | not fulfilled |

====

Known log reduction at 1 µM of a selection of compounds
tested on: HSV-1; experiment: Anti-HSV-1 replication assay (Vero cells, plaque titer); type: cell-based, herpes simplex virus 1; conditions: Human alphaherpesvirus 1, Vero, Table 2 amides; compound at 1 μM; values separated by / are repeats; read-out: HSV-1 suppression 1 μM
measuredEndpoint: log reduction at 1 µM

| compound | reportedResult |
| --- | --- |
| Cc1cc(O)c(=O)c(O)cc1C(=O)N1CCN(C(=O)c2ccc(Cl)cc2)CC1 [compound 875] | 0.0449 |
| Cc1cc(O)c(=O)c(O)cc1C(=O)N1CCN(C(=O)OC(C)(C)C)CC1 [compound 873] | -0.148 |
| Cc1cc(O)c(=O)c(O)cc1C(=O)NC(CCC(=O)O)C(=O)O (stereo not shown) [compound 868] | -0.15 |
| Cc1cc(O)c(=O)c(O)cc1C(=O)NCc1ccc(OC(F)(F)F)cc1 [compound 804] | 0.292 |

====

Target: human RNaseH1 (Homo sapiens)
Sequence (O60930 1-286): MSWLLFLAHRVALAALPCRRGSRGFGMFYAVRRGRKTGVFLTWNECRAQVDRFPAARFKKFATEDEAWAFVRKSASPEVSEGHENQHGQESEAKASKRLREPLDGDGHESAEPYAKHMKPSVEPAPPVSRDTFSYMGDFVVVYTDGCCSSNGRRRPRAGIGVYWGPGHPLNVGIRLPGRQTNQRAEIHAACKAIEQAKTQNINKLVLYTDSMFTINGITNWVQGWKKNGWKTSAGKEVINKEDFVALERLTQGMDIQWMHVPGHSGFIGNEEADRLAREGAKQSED
Test: Biochemical inhibition of human RNaseH1 activity
Conditions: Table 2 amides; read-out: HuRH1 IC50
Procedure: Biochemical inhibition of human RNaseH1 activity. Quantitative inhibition of the human RNaseH1 in the biochemical assays was assessed using a molecular beacon assay as described previously (Edwards et al., 2017). […] Reactions were initiated with 5 mM MgCl2 and fluorescence was read using a Synergy HTS multi-mode plate reader at 37° C. […] Cleavage of the RNA strand released the fluorescein from quenching, increasing fluorescence. […]
pIC50: −log10 of the molar value.
measuredEndpoint: pIC50

| molecule | measuredEndpoint | reportedResult |
| --- | --- | --- |
| Cc1cc(O)c(=O)c(O)cc1C(=O)N1CCN(S(=O)(=O)c2ccsc2)CC1 | pIC50 | 4.51 |
| Cc1cc(O)c(=O)c(O)cc1C(=O)NC(CCC(=O)OC(C)(C)C)C(=O)OC(C)(C)C (stereo not drawn) | pIC50 | 3.17 |
| Cc1cc(O)c(=O)c(O)cc1C(=O)NC(CCC(=O)O)C(=O)O (stereo not drawn) | pIC50 | 4.56 |
| Cc1cc(O)c(=O)c(O)cc1C(=O)N1CCCCC1 | pIC50 | 3.97 |
| Cc1cc(O)c(=O)c(O)cc1C(=O)NCC1COC(C)(C)O1 (stereo not drawn) | pIC50 | 4.14 |
| Cc1cc(O)c(=O)c(O)cc1C(=O)NCc1ccc(OC(F)(F)F)cc1 | pIC50 | 3.10 |
| Cc1cc(O)c(=O)c(O)cc1C(=O)Nc1ccc(OCc2ccccc2)cc1 | pIC50 | 3.20 |
| Cc1cc(O)c(=O)c(O)cc1C(=O)NCc1cccs1 | pIC50 | 3.08 |
| CCCCNC(=O)c1cc(O)c(=O)c(O)cc1C | pIC50 | 3.66 |

====

system: C. neoformans var. grubii, KN99; assay: C. neoformans growth inhibition assay (limiting dilution); assay type: cell-based, Cryptococcus neoformans; details: Cryptococcus neoformans, 48 h, Table 2 amides; 48 h, 35° C., tested 0.19 to 50 μM; read-out: C. neoformans MIC80
measuredEndpoint: log10 of MIC80 (log10 of the value in µM)

| compound | studySystem | log10 of MIC80 |
| --- | --- | --- |
| Cc1cc(O)c(=O)c(O)cc1C(=O)Nc1cccc(Cc2ccccc2)c1 [compound 799] | C. neoformans var. grubii, KN99 | 0.30 |
| Cc1cc(O)c(=O)c(O)cc1C(=O)N1CCN(C(=O)c2ccco2)CC1 [compound 800] | C. neoformans var. grubii, KN99 | 1.41 |
| Cc1cc(O)c(=O)c(O)cc1C(=O)N1CCN(C(=O)C2COc3ccccc3O2)CC1 (centres unmarked) [compound 876] | C. neoformans var. grubii, KN99 | 0.95 |
| Cc1cc(O)c(=O)c(O)cc1C(=O)NCc1ccc(Oc2ccccc2)cc1 [compound 807] | C. neoformans var. grubii, KN99 | 0.65 |
| Cc1cc(O)c(=O)c(O)cc1C(=O)Nc1ccccc1OCc1ccccc1 [compound 835] | C. neoformans var. grubii, KN99 | 0.65 |
| Cc1cc(O)c(=O)c(O)cc1C(=O)Nc1ccc(F)nc1 [compound 707] | C. neoformans var. grubii, KN99 | 1.56 |
| Cc1cc(O)c(=O)c(O)cc1C(=O)NCC1CCN(C(=O)OC(C)(C)C)CC1 [compound 805] | C. neoformans var. grubii, KN99 | 0.95 |
| COC(=O)[C@H](Cc1c[nH]c2ccccc12)NC(=O)c1cc(O)c(=O)c(O)cc1C [compound 797] | C. neoformans var. grubii, KN99 | 0.95 |

====

molecular target: human RNaseH1 (Homo sapiens, UniProt O60930); test: Biochemical inhibition of human RNaseH1 activity; conditions: Table 2 amides; read-out: HuRH1 IC50
Known IC50 of a selection of molecules

| molecule | studySystem | u | IC50 |
| --- | --- | --- | --- |
| Cc1cc(O)c(=O)c(O)cc1C(=O)N1CCN(C(=O)OC(C)(C)C)CC1 [compound 873] | human RNaseH1 (Homo sapiens, UniProt O60930) | µM | 74.7 |
| Cc1cc(O)c(=O)c(O)cc1C(=O)N1CCN(C(=O)c2ccc([N+](=O)[O-])c3nonc23)CC1 [compound 920] | human RNaseH1 (Homo sapiens, UniProt O60930) | µM | 40.2 |
| COc1ccc(CNC(=O)c2cc(O)c(=O)c(O)cc2C)cc1 [compound 806] | human RNaseH1 (Homo sapiens, UniProt O60930) | µM | 61.4 |
| Cc1cc(O)c(=O)c(O)cc1C(=O)NCc1ccc(Oc2ccccc2)cc1 [compound 807] | human RNaseH1 (Homo sapiens, UniProt O60930) | µM | 799 |
| Cc1cc(O)c(=O)c(O)cc1C(=O)N1CCS(=O)(=O)C1 [compound 709] | human RNaseH1 (Homo sapiens, UniProt O60930) | µM | 84.8 |
| Cc1cc(O)c(=O)c(O)cc1C(=O)N1CCN(C(=O)c2cccnc2)CC1 [compound 918] | human RNaseH1 (Homo sapiens, UniProt O60930) | µM | 127 |
| Cc1cc(O)c(=O)c(O)cc1C(=O)N1CCN(C(=O)C2COc3ccccc3O2)CC1 (centres unmarked) [compound 876] | human RNaseH1 (Homo sapiens, UniProt O60930) | µM | 39.2 |
| Cc1cc(O)c(=O)c(O)cc1C(=O)N1CCN(C(=O)c2ccco2)CC1 [compound 800] | human RNaseH1 (Homo sapiens, UniProt O60930) | µM | 46.3 |
